# Tested on: DLD-1
# Method Description: cells
# Condition Context: Homo sapiens
Experimental Endpoint: EC50 (µM)

Compound | System | Inequality Sign | Result
CC1(CCCCCC(=O)NCCOCCOCC(=O)N2CCN(C(=O)c3cc(Cc4n[nH]c(=O)c5ccccc45)ccc3F)CC2)C(/C=C/C=C/C=C2/N(CCCS(=O)(=O)O)c3ccc(S(=O)(=O)O)cc3C2(C)C)=[N+](CCCS(=O)(=O)[O-])c2ccc(S(=O)(=O)O)cc21 (configuration not stated) | DLD-1 | = | 70
O=C(c1cc(Cc2n[nH]c(=O)c3ccccc23)ccc1F)N1CCN(C(=O)C2CC2)CC1 | DLD-1 | = | 19
O=C(O)C1C(C(=O)O)C(C(=O)NCCOCCOCC(=O)N2CCN(C(=O)c3cc(Cc4n[nH]c(=O)c5ccccc45)ccc3F)CC2)C1C(=O)O (configuration not stated) | DLD-1 | > | 100
O=C(c1cc(Cc2n[nH]c(=O)c3ccccc23)ccc1F)N1CCNCC1 | DLD-1 | > | 100
CC(C)(C)OC(=O)NCCOCCOCC(=O)N1CCN(C(=O)c2cc(Cc3n[nH]c(=O)c4ccccc34)ccc2F)CC1 | DLD-1 | > | 100
O=C(CS(=O)(=O)O)NCCOCCOCC(=O)N1CCN(C(=O)c2cc(Cc3n[nH]c(=O)c4ccccc34)ccc2F)CC1 | DLD-1 | = | 53
NCCOCCOCC(=O)N1CCN(C(=O)c2cc(Cc3n[nH]c(=O)c4ccccc34)ccc2F)CC1 | DLD-1 | > | 100

---

# Method Description: Ratio of drug concentration in unbound HEK293 cell to media
# Format: ADME
# Condition Context: human
Rule: Ratio of 0.07 or more gives label 1; anything lower gives label 0.

Compound | Label
Cc1sc2c(c1C)C(c1ccc(Cl)cc1)=N[C@@H](CC(=O)NCCOCCOCCNC(=O)CS(=O)(=O)O)c1nnc(C)n1-2 | label 0
Cc1sc2c(c1C)C(c1ccc(Cl)cc1)=N[C@@H](CC(=O)NCCOCCOCCNC(=O)CCCCCC1(C)C(/C=C/C=C/C=C3/N(CCCS(=O)(=O)O)c4ccc(S(=O)(=O)O)cc4C3(C)C)=[N+](CCCS(=O)(=O)[O-])c3ccc(S(=O)(=O)O)cc31)c1nnc(C)n1-2 (stereo not given in full) | label 0
Cc1sc2c(c1C)C(c1ccc(Cl)cc1)=N[C@@H](CC(=O)NCCOCCOCCNC(=O)OC(C)(C)C)c1nnc(C)n1-2 | label 1
Cc1sc2c(c1C)C(c1ccc(Cl)cc1)=N[C@@H](CC(=O)NCCOCCOCCNC(=O)C1C(C(=O)O)C(C(=O)O)C1C(=O)O)c1nnc(C)n1-2 (stereo not given in full) | label 0

---

Ki reference
# System: Nicotinamide phosphoribosyltransferase (Homo sapiens)
# Sequence (P43490 whole entry, the tested form may be a part): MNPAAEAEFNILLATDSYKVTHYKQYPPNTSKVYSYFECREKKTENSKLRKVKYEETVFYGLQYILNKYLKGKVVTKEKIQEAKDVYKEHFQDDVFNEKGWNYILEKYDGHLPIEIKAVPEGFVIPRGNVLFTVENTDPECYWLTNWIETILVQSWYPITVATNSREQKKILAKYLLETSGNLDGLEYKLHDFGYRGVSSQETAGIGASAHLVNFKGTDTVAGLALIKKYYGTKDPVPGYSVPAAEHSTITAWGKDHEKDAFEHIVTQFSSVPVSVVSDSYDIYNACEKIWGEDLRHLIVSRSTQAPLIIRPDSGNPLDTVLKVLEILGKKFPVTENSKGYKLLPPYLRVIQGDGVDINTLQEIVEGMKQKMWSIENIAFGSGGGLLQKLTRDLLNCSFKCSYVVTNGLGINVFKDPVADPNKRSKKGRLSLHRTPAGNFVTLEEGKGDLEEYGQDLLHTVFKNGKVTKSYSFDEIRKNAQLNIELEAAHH
# Method Description: Displacement of fluorescent labelled OG488 from human full length FLAG-tagged NAMPT (1 to 491 residues) expressed in HEK293-6E cells in presence of PRPP by TR-FRET assay
# Type: cell-based

Molecule | System | Ki (nM)
CC1(CCCCCC(=O)NCCOCCOCC(=O)NCc2cccc(C(=O)N3CCC(CCCCNC(=O)/C=C/c4cccnc4)CC3)c2)C(/C=C/C=C/C=C2/N(CCCS(=O)(=O)O)c3ccc(S(=O)(=O)O)cc3C2(C)C)=[N+](CCCS(=O)(=O)[O-])c2ccc(S(=O)(=O)O)cc21 (stereo unspecified) | Nicotinamide phosphoribosyltransferase (Homo sapiens) | 1.3
CC(C)(C)OC(=O)NCCOCCOCC(=O)NCc1cccc(C(=O)N2CCC(CCCCNC(=O)/C=C/c3cccnc3)CC2)c1 | Nicotinamide phosphoribosyltransferase (Homo sapiens) | 0.2
O=C(/C=C/c1cccnc1)NCCCCC1CCN(C(=O)c2cccc(CNC(=O)COCCOCCNC(=O)C3C(C(=O)O)C(C(=O)O)C3C(=O)O)c2)CC1 (stereo unspecified) | Nicotinamide phosphoribosyltransferase (Homo sapiens) | 5.9
NCCOCCOCC(=O)NCc1cccc(C(=O)N2CCC(CCCCNC(=O)/C=C/c3cccnc3)CC2)c1 | Nicotinamide phosphoribosyltransferase (Homo sapiens) | 1.9
O=C(/C=C/c1cccnc1)NCCCCC1CCN(C(=O)c2cccc(CNC(=O)COCCOCCNC(=O)CS(=O)(=O)O)c2)CC1 | Nicotinamide phosphoribosyltransferase (Homo sapiens) | 7.9
NCc1cccc(C(=O)N2CCC(CCCCNC(=O)/C=C/c3cccnc3)CC2)c1 | Nicotinamide phosphoribosyltransferase (Homo sapiens) | 1.1
